target-desc: UniProtKB P42330
Sequence (P42330 whole entry): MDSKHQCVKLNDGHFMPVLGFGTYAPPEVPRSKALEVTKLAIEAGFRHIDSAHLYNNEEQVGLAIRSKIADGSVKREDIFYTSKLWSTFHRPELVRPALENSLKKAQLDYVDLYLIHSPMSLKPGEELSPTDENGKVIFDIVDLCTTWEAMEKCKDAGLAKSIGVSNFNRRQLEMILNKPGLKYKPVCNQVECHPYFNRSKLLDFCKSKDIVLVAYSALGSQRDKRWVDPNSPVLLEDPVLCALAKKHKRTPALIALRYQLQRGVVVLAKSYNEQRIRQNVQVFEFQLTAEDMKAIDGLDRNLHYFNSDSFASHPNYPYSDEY
method-description: Inhibition of 6 His-tagged human AKR1C3 expressed in Escherichia coli BL21 (DE3) cells using 9,10-phenanthrenequinone as substrate assessed as substrate reduction by measuring change in NADPH fluorescence at 33.3 uM incubated for 30 mins by fluorescence spectroscopic analysis relative to control
Active and inactive are the calls of the source. No cut-off for these calls is given here.
result-type: inhibition

Here's what some known entries look like.
{"columns": ["smiles-text", "target-desc", "inhibition"],
 "data": [
  ["C[C@H](CCC(=O)O)[C@H]1CC[C@H]2[C@@H]3CC[C@@H]4C[C@H](O)CC[C@]4(C)[C@H]3Cc3nnnn3[C@]12C", "UniProtKB P42330", "77.9%"],
  ["C[C@H](CCC(=O)O)[C@H]1CC[C@H]2[C@H]3[C@H](C[C@H](O)[C@]12C)[C@@]1(C)CC[C@@H](O)C[C@H]1Cc1nnnn13", "UniProtKB P42330", "inactive"],
  ["COC(=O)CC[C@@H](C)[C@H]1CC[C@H]2[C@H]3[C@H](C[C@H](OC(C)=O)[C@]12C)[C@@]1(C)CC[C@@H](OC(C)=O)C[C@H]1Cc1nnnn13", "UniProtKB P42330", "inactive"],
  ["CCOC(=O)CC[C@@H](C)[C@H]1CC[C@H]2[C@H]3[C@H](CC[C@]12C)[C@@]1(C)CC[C@@H](OC(C)=O)C[C@H]1Cc1nnnn13", "UniProtKB P42330", "inactive"]
]}

Next compound, inhibition to be filled in.
Record C[C@H](CCC(=O)O)[C@H]1CC[C@H]2[C@H]3[C@H](CC[C@]12C)[C@@]1(C)CC[C@@H](O)C[C@H]1Cc1nnnn13 / UniProtKB P42330, inhibition recorded as 14.2%
